- System: SH-SY5Y cells; also: reference of the scale not given here
- condition-description: PKIS2 primary screening, DQ Red BSA spot count

compound: COc1ccc(CNC(=O)NC2CCN(c3ccnc(Nc4ccc(F)cc4)n3)C2)cc1 (centres unmarked) [GSK1379706]
DQ Spot: 81.58

compound: CNc1cc(-c2ccc3c(N)n[nH]c3c2)nc(N)n1 [GSK2224810]
DQ Spot: 95.12

compound: Cc1cccc(-c2cc(-c3c[nH]nc3-c3ccccn3)ccn2)c1 [UNC10225499A]
DQ Spot: 90.33

compound: COc1cc(Nc2ccnc3ccc(C(F)(F)F)cc23)cc(OC)c1OC [UNC10225109A]
DQ Spot: 111.66

compound: Nc1ncc(-c2cccnc2)c2scc(-c3ccc4c(c3)CCN4C(=O)Cc3ccccc3)c12 [UNC10225369A]
DQ Spot: 86.78

compound: CN(c1ccc(NC(=O)N2CCN(CCCN3CCOCC3)CC2)cc1)c1ccnc(Nc2ccc(CS(C)(=O)=O)cc2)n1 [GW830899]
DQ Spot: 98.21

compound: COc1ccc(Nc2nccc(NCCNC(=O)Nc3cc(C)ccc3C)n2)cc1 [GSK1379899]
DQ Spot: 108.96

compound: COc1cc2c(Nc3cccc(NC(=O)c4ccccc4)c3)ncnc2cc1OCCCN1CCOCC1 [UNC10225271A]
DQ Spot: 104.52
